Values compiled from ChEMBL document CHEMBL1125327.

In this section we review reported Ki values for a set of molecules.
- Measured target: Mu-type opioid receptor (Rattus norvegicus)
- Sequence (P33535 whole entry): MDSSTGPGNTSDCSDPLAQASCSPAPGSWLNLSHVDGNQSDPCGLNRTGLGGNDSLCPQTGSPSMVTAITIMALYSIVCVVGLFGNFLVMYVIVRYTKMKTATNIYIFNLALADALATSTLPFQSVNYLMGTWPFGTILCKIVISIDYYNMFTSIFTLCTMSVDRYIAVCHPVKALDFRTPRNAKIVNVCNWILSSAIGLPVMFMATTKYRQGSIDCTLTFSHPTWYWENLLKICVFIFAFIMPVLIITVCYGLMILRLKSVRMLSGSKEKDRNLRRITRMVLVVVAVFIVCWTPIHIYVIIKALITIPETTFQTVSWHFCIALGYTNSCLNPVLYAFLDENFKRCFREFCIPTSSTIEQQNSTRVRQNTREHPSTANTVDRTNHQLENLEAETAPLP
- Assay summary: Inhibition of [3H]- ]DAMGO binding to mu receptor from rat brain membrane
Return type: number; implicit unit µM.

INSERT INTO results (molecule, quantity_measured, quantitative_readout) VALUES
  ('CC(C)[C@@H]1NC(=O)[C@H](CC(=O)O)NC(=O)[C@H](Cc2ccccc2)NC(=O)[C@H](NC(=O)[C@@H](N)Cc2ccc(O)cc2)CCCCNC(=O)CC[C@@H](C(N)=O)NC(=O)[C@H](C(C)C)NC1=O', 'Ki', 0.891);

CSCC[C@H](NC(=O)[C@H](CC(C)C)NC(=O)[C@H](Cc1cnc[nH]1)NC(=O)[C@H](Cc1ccccc1)NC(=O)[C@@H](CCSC)NC(=O)[C@@H](N)Cc1ccc(O)cc1)C(=O)N[C@@H](CC(=O)O)C(N)=O (stereo in doubt; 7) [DELTORPHIN A] on Mu-type opioid receptor (Rattus norvegicus) gives Ki = 0.143
